Sourced from patent US20260062443A1

Here, each record is paired with measured IC50 data.
Target: UniProt P09871
Assay: Human C1s enzyme assay
Format: biochemical
Details: human complement C1s enzyme 1.16 nM, substrate Z-L-Lys-SBzl 100 μM, 5 min preincubation; read-out: IC50 (Stars), C1s Inhibiting Activity

Lab note: measured IC50 of `O=C(NCC(=O)N1C[C@H](OC(F)F)C[C@H]1C(=O)NCc1cc2cnccn2c1)c1ccc2c(c1)Oc1ccccc1S2` was < 100 nM

In plain terms, `C[C@@H](NC(=O)[C@@H]1CC2(CN1C(=O)CN1Cc3cc(-c4ccc(F)cc4F)ccc3C1=O)OCCO2)c1cc2cnccc2[nH]1` has a documented IC50 of 100 to 1000 nM

Entry `O=C(NCC(=O)N1C[C@H](OC(F)F)C[C@H]1C(=O)NCc1ccc2ccncc2c1)c1ccc2c(c1)Oc1ccccc1S2` ; IC50 = > 1000 nM

New cases:
The molecule `O=C(NCC(=O)N1C[C@H](OC(F)F)C[C@H]1C(=O)NCc1ccc2cc[nH]c2c1)c1ccc2c(c1)Oc1ccccc1S2` showed IC50 equal to > 1000 nM

Record `C[C@@H](NC(=O)[C@@H]1CC2(CCCC2)CN1C(=O)CNC(=O)c1ccc2c(c1)Oc1ccccc1S2)c1cc2cnccc2[nH]1` , field IC50: < 100 nM

Lookup result for `C[C@@H](NC(=O)[C@@H]1C[C@@H](OC(F)(F)F)CN1C(=O)CNC(=O)c1ccc2c(c1)Oc1ccccc1S2)c1cc2cnccc2[nH]1` ; measured IC50: < 100 nM

Lookup result for `O=C(NCC(=O)N1CC2(C[C@H]1C(=O)NCc1cc3ncccc3[nH]1)OCCO2)c1ccc2c(c1)-c1ccccc1C2(F)F` ; measured IC50: > 1000 nM

Record `COC[C@@]1(F)C[C@@H](C(=O)N[C@H](CO)c2cc3cnccc3[nH]2)N(C(=O)CNC(=O)c2ccc(Oc3ccc(F)cc3)cc2)C1` . Reported IC50: > 1000 nM

IC50 in this record for `C[C@@]12C[C@@H]1N(C(=O)CNC(=O)c1ccc(Oc3ccccc3)cc1)[C@H](C(=O)NCc1cc3cnccc3[nH]1)C2` : < 100 nM

###

Target: Human complement C1s enzyme (Homo sapiens, UniProt P09871)
Sequence (P09871 438-688 limits assumed): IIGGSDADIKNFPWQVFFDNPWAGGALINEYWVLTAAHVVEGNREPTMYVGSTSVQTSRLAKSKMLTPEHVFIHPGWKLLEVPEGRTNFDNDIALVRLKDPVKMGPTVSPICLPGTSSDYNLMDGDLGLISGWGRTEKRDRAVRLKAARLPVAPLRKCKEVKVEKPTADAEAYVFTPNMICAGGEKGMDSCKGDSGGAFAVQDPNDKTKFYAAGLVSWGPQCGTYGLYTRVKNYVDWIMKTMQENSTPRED
Sequence (P09871 16-437 partner limits assumed): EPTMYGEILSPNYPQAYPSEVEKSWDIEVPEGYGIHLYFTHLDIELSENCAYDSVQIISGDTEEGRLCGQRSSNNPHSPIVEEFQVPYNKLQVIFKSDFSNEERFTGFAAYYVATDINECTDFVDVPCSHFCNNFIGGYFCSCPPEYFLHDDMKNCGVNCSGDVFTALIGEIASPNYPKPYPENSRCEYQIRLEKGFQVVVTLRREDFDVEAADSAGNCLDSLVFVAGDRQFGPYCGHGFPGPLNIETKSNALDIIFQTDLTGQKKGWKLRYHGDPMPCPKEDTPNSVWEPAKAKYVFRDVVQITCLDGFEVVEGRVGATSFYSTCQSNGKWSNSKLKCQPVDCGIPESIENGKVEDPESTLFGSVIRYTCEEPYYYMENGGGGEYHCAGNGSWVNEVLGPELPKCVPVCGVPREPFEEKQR
Assay: Human C1s enzyme assay
Format: biochemical
Conditions: human complement C1s enzyme 1.16 nM, substrate Z-L-Lys-SBzl 100 μM, 5 min preincubation; read-out: IC50 (Stars), C1s Inhibiting Activity
READOUT TYPE: IC50

The recorded IC50 for `Cc1ccc(Oc2ccnc(C(=O)NCC(=O)N3C[C@H](OC(F)F)C[C@H]3C(=O)NCc3cc4cnccc4[nH]3)c2)c(F)c1` is < 100 nM

IC50 measured on `O=C(NCC(=O)N1CC2(C[C@H]1C(=O)NCc1cc3cncnc3[nH]1)OCCO2)c1ccc2c(c1)-c1ccccc1C2(F)F` = > 1000 nM

For the next question, use this molecule.
get_value(item= `O=C(NCC(=O)N1CC2(C[C@H]1C(=O)NCc1cc3ccccc3[nH]1)OCCO2)c1ccc2c(c1)-c1ccccc1C2(F)F` , readout=IC50) returns > 1000 nM

###

Biological target: Human complement C1s enzyme (Homo sapiens, UniProt P09871)
Test: Human C1s enzyme assay
Format: biochemical
Conditions: human complement C1s enzyme 1.16 nM, substrate Z-L-Lys-SBzl 100 μM, 5 min preincubation; read-out: IC50 (Stars), C1s Inhibiting Activity
pIC50: −log10 of the molar value.
READOUT TYPE: pIC50

Below: 3 molecules and their reported pIC50.
get_value(item= Cc1ccc(-c2ccc3c(c2)CN(CC(=O)N2C[C@H](OC(F)F)C[C@H]2C(=O)N[C@H](C)c2cc4cnccc4[nH]2)C3=O)cc1 [Compound 105] , readout=pIC50) returns > 7.00

Notebook: Cc1ccc2c(c1)Sc1ccc(C(=O)NCC(=O)N3C[C@H](OC(F)F)C[C@H]3C(=O)N[C@H](C)c3cc4cnccc4[nH]3)cc1O2 [Compound 286] , pIC50 read as > 7.00

Looking up O=C(NCC(=O)N1C[C@H](OC(F)F)C[C@H]1C(=O)NCc1cc2cnccc2[nH]1)c1ccc(OC2CCCCC2)cc1 [Compound 383] , I found its pIC50 recorded as > 7.00

More entries:
So for O=C(NCC(=O)N1C[C@H](OC(F)F)C[C@H]1C(=O)NCc1cc2cnccc2[nH]1)c1ccc2c(c1)OCCS2 [Compound 356] , the logged pIC50 turned out to be > 7.00

C[C@@]12C[C@@H]1N(C(=O)CNC(=O)CCCOc1ccccc1)[C@H](C(=O)NCCCn1ccnc1)C2 [Compound 59] has a reported pIC50 of < 6.00

Looking up C[C@@]12C[C@@H]1N(C(=O)CNC(=O)c1cccc(-c3ccccc3)n1)[C@H](C(=O)NCc1cc3cnccc3[nH]1)C2 [Compound 159] , I found its pIC50 recorded as < 6.00
